tested_on: human recombinant AKR1B1 (Homo sapiens)
assay_method_text: Aldose reductase (AKR1B1) inhibition assay
measure_name: IC50 (µM)

> print(dat)
                              smiles.entry  quantitative.result
1  O=C(O)CCc1ccc(OCC(=O)Nc2nc3ccccc3s2)cc1                 23.3

* * *

# EC50 values compiled below
tested_on: GPR40 (Homo sapiens)
Sequence (O14842 whole entry): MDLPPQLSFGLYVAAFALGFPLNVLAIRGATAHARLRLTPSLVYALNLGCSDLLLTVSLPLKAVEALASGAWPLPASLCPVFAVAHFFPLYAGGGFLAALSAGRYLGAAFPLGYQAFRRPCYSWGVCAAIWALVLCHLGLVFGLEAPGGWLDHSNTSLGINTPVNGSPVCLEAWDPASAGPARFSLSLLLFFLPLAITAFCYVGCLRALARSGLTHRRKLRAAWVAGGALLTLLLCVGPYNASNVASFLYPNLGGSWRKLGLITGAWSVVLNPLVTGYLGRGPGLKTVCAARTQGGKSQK
assay_method_text: GPR40 agonist calcium flux assay in hGPR40/Gα16/HEK293 cells
measure_name: EC50 (µM)

> print(dat)
                                   compound             tested.on  relation.qualifier  quantitative.result
1   O=C(O)CCc1ccc(OCC(=O)Nc2nc3ccccc3s2)cc1  GPR40 (Homo sapiens)                   >                  100
2   O=C(O)CCc1ccc(OCc2cccc(-c3ccccc3)c2)cc1  GPR40 (Homo sapiens)                   =                0.075
3  CCCCC/C=C\C/C=C\CCCCCCCC(=O)O [LA, Linoleic acid, reference compound]  GPR40 (Homo sapiens)                   =                  8.3
